Origin of the recorded values: PubChem BioAssay AID886

- Test System: 3-hydroxyacyl-CoA dehydrogenase type-2 (Homo sapiens) (UniProt Q99714)
- Sequence (Q99714 whole entry, looked up): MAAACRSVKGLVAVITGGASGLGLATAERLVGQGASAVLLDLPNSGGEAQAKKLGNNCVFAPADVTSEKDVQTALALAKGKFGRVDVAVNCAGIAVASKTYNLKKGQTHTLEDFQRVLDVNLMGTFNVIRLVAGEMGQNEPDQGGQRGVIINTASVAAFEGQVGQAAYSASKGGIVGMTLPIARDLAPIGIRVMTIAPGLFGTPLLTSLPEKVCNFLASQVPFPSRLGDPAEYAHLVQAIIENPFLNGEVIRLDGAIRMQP
- Sequence (Q99714 whole entry, looked up): as above
- Assay Info: qHTS Assay for Inhibitors of HADH2 (Hydroxyacyl-Coenzyme A Dehydrogenase, Type II); note: nearly all actives have a fitted effect of over 60% in size
- Condition Details: recombinant HADH2, NADH fluorescence, beta-hydroxybutyryl-CoA; series mostly up to 57.1 µM
About 2,500 (3.4%) of roughly 73,000 compounds were called active. Roughly 7% stayed inconclusive and do not appear here. Calls come from the whole dose curve; as a rule, active = well fitted inhibition curve with a large enough effect; inconclusive = small, poorly fitted or top-dose-only effect; inactive = no such curve, though single readings can be large or run the other way. For the sample, actives were picked, then their nearest neighbours and some compounds at random.
Choose one outcome from this list and give only that: 1.0 (active), 0.0 (inactive)

Some entries whose results are on file:
# Compound Smiles, Test System, Assigned Category
records = [
    ("COc1ccc2c(=O)cc(-c3ccccc3)oc2c1O", "3-hydroxyacyl-CoA dehydrogenase type-2 (Homo sapiens) (UniProt Q99714)", 0.0),
    ("CCC[C@@H]1C[C@@]1(CCC)[C@@H](NC(=O)c1ccccc1)c1ccc(C(=O)OC)cc1", "3-hydroxyacyl-CoA dehydrogenase type-2 (Homo sapiens) (UniProt Q99714)", 0.0),
    ("Cc1nc(C)c(C(=O)Nc2cccc(C)c2C)o1", "3-hydroxyacyl-CoA dehydrogenase type-2 (Homo sapiens) (UniProt Q99714)", 1.0),
    ("COC(=O)[C@@]1(Cc2ccc(OC)cc2)[C@H]2c3cc(C(=O)N4CCCC4)n(Cc4ccc(C(F)(F)F)nc4)c3C[C@H]2CN1C(=O)c1ccccc1", "3-hydroxyacyl-CoA dehydrogenase type-2 (Homo sapiens) (UniProt Q99714)", 0.0),
    ("COc1ccc(C[C@H](N)C(=O)N[C@@H]2[C@H](O)[C@H](n3cnc4c(N(C)C)ncnc43)O[C@@H]2CO)cc1", "3-hydroxyacyl-CoA dehydrogenase type-2 (Homo sapiens) (UniProt Q99714)", 0.0),
]

Task: Any idea what this test logged for `CN(C)c1ncc2nc(-c3ccc(F)cc3)c(=O)n(Cc3ccc(F)cc3)c2n1` ?
Output: 0.0

Task: Call for entry `CCCCC[C@H](O)CCCC(=O)O` :
Output: 0.0

Task: # fetch the recorded call for `Cc1nc2nc(COc3ccccc3)[nH]n2c(=O)c1Cc1ccccc1` here
Output: 0.0

Task: Look up the recorded call for `O=C(c1ccco1)N1CCC2(CC1)CCN(c1ncccn1)CC2` in this test.
Output: 0.0

Task: Can you look up the reported call for `O=c1[nH]c(-c2cccs2)nc2ccccc12` for me?
Output: 0.0

Task: Any idea what this test logged for `Cc1cnc(CNc2ncncc2-c2ccccc2Cl)cn1` ?
Output: 0.0

Task: Which outcome did this test record for the compound `O=C(OCC(COC(=O)c1ccccc1)(COC(=O)c1ccccc1)COC(=O)c1ccccc1)c1ccccc1` ?
Output: 0.0

Task: Outcome logged for `CCc1c(C)nc2cc(-c3cccs3)[nH]n2c1=O` in this assay:
Output: 1.0

Task: For this compound, state the assay outcome: `CC(C)C[C@@H](CC(=O)N[C@@H](CCC(=O)O)CC(=O)O)NC(=O)[C@@H]1CCCC[C@H]1NC(=O)C[C@@H](NC(=O)C[C@H](CO)NC(=O)[C@@H]1CCCC[C@H]1N)C(C)C`
Output: 0.0
